B1: POU domain, class 5, transcription factor 1, residues 134 to 212; numbered along this chain, Q01860 (parent)
chain: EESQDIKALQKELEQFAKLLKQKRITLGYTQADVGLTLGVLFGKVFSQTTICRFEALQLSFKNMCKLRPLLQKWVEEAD

Variants of: B1
Assay: abundance fitness (aPCA) (normalised: wild type 0, dead -1); higher = more abundant; growth selection in yeast, the domain comes from the species named
Details: Homo sapiens
Respond with Condition met for abundance fitness values of -0.07 and above, Condition not met for values below.

Solved cases (5 shown):
> print(dat)
   changes   class.assignment
1     R68G  Condition not met
2     R68W      Condition met
3     T37M      Condition met
4      A8C      Condition met
5      L9F  Condition not met

Please indicate if the recorded abundance fitness for F61Y meets or exceeds -0.07.
Condition not met

Please indicate if the recorded abundance fitness for R53E meets or exceeds -0.07.
Condition not met

Please indicate if the recorded abundance fitness for T49W meets or exceeds -0.07.
Condition not met

Please indicate if the recorded abundance fitness for T50R meets or exceeds -0.07.
Condition not met

Please indicate if the recorded abundance fitness for L13S meets or exceeds -0.07.
Condition not met
